Acetylcholinesterase (Electrophorus electricus, UniProt O42275) data, read-out pIC50
Sequence (O42275 whole entry): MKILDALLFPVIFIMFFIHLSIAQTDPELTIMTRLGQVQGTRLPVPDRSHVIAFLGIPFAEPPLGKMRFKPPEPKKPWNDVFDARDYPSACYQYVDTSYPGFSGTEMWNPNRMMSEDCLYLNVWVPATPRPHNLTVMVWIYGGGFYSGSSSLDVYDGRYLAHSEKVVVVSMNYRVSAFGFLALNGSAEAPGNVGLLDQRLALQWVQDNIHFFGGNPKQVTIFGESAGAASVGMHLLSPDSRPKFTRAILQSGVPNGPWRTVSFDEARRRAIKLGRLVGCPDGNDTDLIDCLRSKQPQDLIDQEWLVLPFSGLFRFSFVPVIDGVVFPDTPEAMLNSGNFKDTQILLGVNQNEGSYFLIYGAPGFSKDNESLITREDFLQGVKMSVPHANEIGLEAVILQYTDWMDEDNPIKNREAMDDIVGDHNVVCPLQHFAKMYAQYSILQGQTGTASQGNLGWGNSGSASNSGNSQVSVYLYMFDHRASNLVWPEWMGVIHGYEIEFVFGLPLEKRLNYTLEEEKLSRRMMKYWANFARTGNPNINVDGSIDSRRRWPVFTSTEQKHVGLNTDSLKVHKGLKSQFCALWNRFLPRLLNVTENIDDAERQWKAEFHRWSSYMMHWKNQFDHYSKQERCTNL
# pIC50: negative log10 of molar concentration; output just the value

pIC50 for O=C1/C(=C/c2ccc(Cl)cc2)COc2cc(OCCCCCCNc3c4c(nc5ccccc35)CCCC4)ccc21 ?
7.00

pIC50 for COc1ccc(/C=C2\COc3cc(OCCCCCNc4c5c(nc6ccccc46)CCCC5)ccc3C2=O)cc1 ?
7.11

pIC50 for COc1ccccc1/C=C1\COc2cc(OCCCCCCNc3c4c(nc5ccccc35)CCCC4)ccc2C1=O ?
6.82

pIC50 for Cc1ccc(/C=C2\COc3cc(OCCCCCCNc4c5c(nc6ccccc46)CCCC5)ccc3C2=O)cc1 ?
6.89

* * *

Amine oxidase [flavin-containing] B (Homo sapiens) data, read-out pIC50
# pIC50: negative log10 of molar concentration; output just the value

Sample answers from the record:
MOL | pIC50
COc1ccc(/C=C2\COc3cc(OCCCCCCCCNc4c5c(nc6ccccc46)CCCC5)ccc3C2=O)cc1 | 6.29
COc1ccc(/C=C2\COc3cc(OCCCCCCNc4c5c(nc6ccccc46)CCCC5)ccc3C2=O)cc1 | 6.40
COc1ccc(/C=C2\COc3cc(OCCCCCCCCNc4c5c(nc6cc(Cl)ccc46)CCCC5)ccc3C2=O)cc1 | 5.81
COc1ccc(/C=C2\COc3cc(OCCCCCNc4c5c(nc6ccccc46)CCCC5)ccc3C2=O)cc1 | 5.94
COc1ccc(/C=C2\COc3cc(OCCCCCCCCCNc4c5c(nc6ccccc46)CCCC5)ccc3C2=O)cc1 | 6.36

pIC50 for COc1ccc(/C=C2\COc3cc(OCCCCCCNc4c5c(nc6cc(Cl)ccc46)CCCC5)ccc3C2=O)cc1 ?
5.87

pIC50 for COc1ccccc1/C=C1\COc2cc(OCCCCCCNc3c4c(nc5ccccc35)CCCC4)ccc2C1=O ?
5.75

pIC50 for COc1ccc(/C=C2\COc3cc(OCCCCCCNc4c5c(nc6ccccc46)CCCC5)ccc3C2=O)cc1OC ?
4.70

* * *

Acetylcholinesterase (Homo sapiens, UniProt P22303) data, read-out IC50
Sequence (P22303 whole entry): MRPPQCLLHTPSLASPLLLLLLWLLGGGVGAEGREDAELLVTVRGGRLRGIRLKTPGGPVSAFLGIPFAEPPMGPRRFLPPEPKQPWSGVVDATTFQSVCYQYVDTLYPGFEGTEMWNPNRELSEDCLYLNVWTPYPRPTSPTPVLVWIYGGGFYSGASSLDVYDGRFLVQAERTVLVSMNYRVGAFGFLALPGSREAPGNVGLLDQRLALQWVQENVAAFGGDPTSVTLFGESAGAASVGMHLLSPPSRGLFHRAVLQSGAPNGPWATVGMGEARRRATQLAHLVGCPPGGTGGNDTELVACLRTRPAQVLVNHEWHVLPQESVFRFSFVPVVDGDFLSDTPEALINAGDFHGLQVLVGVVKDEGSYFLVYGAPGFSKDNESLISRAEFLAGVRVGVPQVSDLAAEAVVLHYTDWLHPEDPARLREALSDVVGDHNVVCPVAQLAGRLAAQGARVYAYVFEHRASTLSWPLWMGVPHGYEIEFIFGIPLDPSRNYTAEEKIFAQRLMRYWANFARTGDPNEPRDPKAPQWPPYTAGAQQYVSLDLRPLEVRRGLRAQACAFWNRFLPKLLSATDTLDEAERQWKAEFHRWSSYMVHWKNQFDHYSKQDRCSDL
Write the value in nM as a bare number.

Sample answers from the record:
MOL | UNIT ANNOTATION | NUMERIC VALUE
COc1ccc(/C=C2\COc3cc(OCCCCCCNc4c5c(nc6ccccc46)CCCC5)ccc3C2=O)cc1 | nM | 157
O=C1/C(=C/c2ccc(F)cc2)COc2cc(OCCCCCCNc3c4c(nc5ccccc35)CCCC4)ccc21 | nM | 105
COc1ccc(/C=C2\COc3cc(OCCCCCNc4c5c(nc6ccccc46)CCCC5)ccc3C2=O)cc1 | nM | 98

IC50 for COc1ccc(/C=C2\COc3cc(OCCCCCCCCNc4c5c(nc6ccccc46)CCCC5)ccc3C2=O)cc1 ?
122

* * *

Each entry below carries its recorded IC50.
target: UniProt:O42275
# do not omit the unit; it follows the number

Sample answers from the record:
MOL | IC50
O=C1/C(=C/c2ccc(F)cc2)COc2cc(OCCCCCCNc3c4c(nc5ccccc35)CCCC4)ccc21 | 70.1 nM
COc1ccc(/C=C2\COc3cc(OCCCCCCCCCNc4c5c(nc6ccccc46)CCCC5)ccc3C2=O)cc1 | 169 nM
CN(C)c1ccc(/C=C2\COc3cc(OCCCCCCNc4c5c(nc6ccccc46)CCCC5)ccc3C2=O)cc1 | 115 nM

Now consider the entry below.
IC50 for COc1ccc(/C=C2\COc3cc(OCCCCCCCCNc4c5c(nc6cc(Cl)ccc46)CCCC5)ccc3C2=O)cc1 ?
188 nM

* * *

Each entry below carries its recorded pIC50.
Sequence of the target: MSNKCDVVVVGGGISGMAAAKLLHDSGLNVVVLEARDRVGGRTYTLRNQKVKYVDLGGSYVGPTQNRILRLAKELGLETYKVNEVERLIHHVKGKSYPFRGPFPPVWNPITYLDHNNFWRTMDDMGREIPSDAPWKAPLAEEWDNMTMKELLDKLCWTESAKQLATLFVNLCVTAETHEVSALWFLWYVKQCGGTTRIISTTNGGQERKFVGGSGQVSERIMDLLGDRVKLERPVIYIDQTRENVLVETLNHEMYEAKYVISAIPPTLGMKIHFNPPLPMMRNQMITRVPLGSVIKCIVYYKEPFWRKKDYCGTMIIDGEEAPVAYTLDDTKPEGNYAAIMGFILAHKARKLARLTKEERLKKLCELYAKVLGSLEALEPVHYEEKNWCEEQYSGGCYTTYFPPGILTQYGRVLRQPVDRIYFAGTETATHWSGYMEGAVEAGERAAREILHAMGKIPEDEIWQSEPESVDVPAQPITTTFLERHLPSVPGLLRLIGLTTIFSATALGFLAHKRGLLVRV
# pIC50: negative log10 of molar concentration; output just the value

MOLECULE | NUMERIC VALUE
Cc1ccc(/C=C2\COc3cc(OCCCCCCNc4c5c(nc6ccccc46)CCCC5)ccc3C2=O)cc1 | 5.91
COc1ccc(CC2COc3cc(OCCCCCCNc4c5c(nc6ccccc46)CCCC5)ccc3C2=O)cc1 (stereo not drawn) | 5.95

pIC50 for O=C1/C(=C/c2ccc(F)cc2)COc2cc(OCCCCCCNc3c4c(nc5ccccc35)CCCC4)ccc21 ?
5.96

* * *

Cholinesterase (Equus caballus) data, read-out IC50
Sequence (P81908 whole entry): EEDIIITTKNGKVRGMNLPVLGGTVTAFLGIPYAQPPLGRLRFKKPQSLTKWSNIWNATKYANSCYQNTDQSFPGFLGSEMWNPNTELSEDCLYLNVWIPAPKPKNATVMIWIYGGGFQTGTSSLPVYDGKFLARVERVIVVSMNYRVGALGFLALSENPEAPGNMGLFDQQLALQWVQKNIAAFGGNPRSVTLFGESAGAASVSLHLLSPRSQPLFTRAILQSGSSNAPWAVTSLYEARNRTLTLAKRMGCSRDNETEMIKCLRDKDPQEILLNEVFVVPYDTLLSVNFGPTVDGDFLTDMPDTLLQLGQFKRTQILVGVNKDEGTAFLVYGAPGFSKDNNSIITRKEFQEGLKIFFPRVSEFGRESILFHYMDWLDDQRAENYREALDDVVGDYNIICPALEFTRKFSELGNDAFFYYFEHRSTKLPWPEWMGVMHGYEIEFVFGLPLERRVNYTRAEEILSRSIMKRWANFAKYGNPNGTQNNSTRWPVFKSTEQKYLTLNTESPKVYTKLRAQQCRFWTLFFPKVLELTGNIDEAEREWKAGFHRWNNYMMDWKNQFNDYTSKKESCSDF

Sample answers from the record:
MOL | RESULT
COc1ccc(/C=C2\COc3cc(OCCCCCNc4c5c(nc6ccccc46)CCCC5)ccc3C2=O)cc1 | 23.6 nM
COc1cc(/C=C2\COc3cc(OCCCCCCNc4c5c(nc6ccccc46)CCCC5)ccc3C2=O)cc(OC)c1OC | 109 nM

IC50 for O=C1/C(=C/c2ccc(F)cc2)COc2cc(OCCCCCCNc3c4c(nc5ccccc35)CCCC4)ccc21 ?
44.2 nM

IC50 for COc1ccc(/C=C2\COc3cc(OCCCCCCNc4c5c(nc6ccccc46)CCCC5)ccc3C2=O)cc1OC ?
34.7 nM
